Test system: LOX IMVI
Experiment: NCI tumour cell line growth inhibition, 48 h
Calls of active or inactive are those of the source. No stated cut-off is given here; in the data, active = GI50 up to about 1.1 µM and inactive = higher.
Items are presented alongside their recorded GI50.
endpointName: GI50

{"molecule": "O=C(Sc1c(-c2ccccc2)c(=O)n(-c2ccccc2)c(=S)n1-c1ccccc1)c1ccco1", "result": "> 100 µM (inactive)"}
{"molecule": "O=c1o[nH]/c(=N/c2ccccc2)n1-c1ccccc1", "result": "> 100 µM (inactive)"}
{"molecule": "O=C(CC(c1ccccc1)c1c(O)c2ccccc2oc1=O)c1ccccc1 (stereo unspecified)", "result": "> 67.8 µM (inactive)"}
{"molecule": "CC1=NN(c2ccccc2)C(=O)C1=C1SCCS1", "result": "42.6 µM (inactive)"}
{"molecule": "BrC1(Br)C2/C=C\\CCCCC21 (stereo unspecified)", "result": "> 100 µM (inactive)"}
{"molecule": "Cc1cc(Br)c(N2C3=C(CC4=C2CCCC4=O)C(=O)CCC3)c(Br)c1", "result": "23.7 µM (inactive)"}
{"molecule": "O=C(NCCCCCCNC(=O)c1cccc2ccccc12)Nc1cccc2ccccc12", "result": "> 100 µM (inactive)"}
{"molecule": "CCCc1cc(-c2ccc(-c3cc(CCC)c(C=O)[nH]3)s2)[nH]c1C=O", "result": "5.89 µM (inactive)"}
{"molecule": "CCN1CCN(c2nc3ccccc3nc2C(=O)c2ccc(OC)c(OC)c2)CC1", "result": "12.7 µM (inactive)"}
{"molecule": "N#CSC#Cc1ccc(C#CSC#N)cc1", "result": "16.3 µM (inactive)"}
{"molecule": "O=C1CCc2ccccc2O1 [DIHYDROCOUMARIN]", "result": "> 100 µM (inactive)"}

---

Test system: SW-620
Assay: NCI tumour cell line growth inhibition, 48 h
The source made the active and inactive calls. Cut-off read from the data, not from the text of the source: active = GI50 up to about 1.1 µM and inactive = higher.

{"compound": "CN1CCC[N+](C)=C1c1ccccc1", "GI50": "> 100 µM (inactive)"}
{"compound": "CC[C@@]1(N(C)C)C(=O)OCc2c1cc1n(c2=O)Cc2cc3ccccc3nc2-1", "GI50": "32.1 µM (inactive)"}
{"compound": "CCCN1CC=CCC1", "GI50": "> 100 µM (inactive)"}
{"compound": "NC(=O)C(Nc1c(Cl)cccc1Cl)c1cc2cc(Br)ccc2nc1Cl (configuration not stated)", "GI50": "37.6 µM (inactive)"}
{"compound": "N#CC(Nc1cccc(C(F)(F)F)c1)c1ccccc1C(F)(F)F (configuration not stated)", "GI50": "3.08 µM (inactive)"}
{"compound": "O=C(CC(=O)C1=CNc2ccccc2S1)C(=O)Nc1ccc(Cl)cc1", "GI50": "> 50 µM (inactive)"}
{"compound": "CCOC(=O)C(=O)Nc1cc(Cl)ccc1Cl", "GI50": "> 100 µM (inactive)"}

---

Test system: LOX IMVI
Experiment: NCI tumour cell line growth inhibition, 48 h
Active and inactive are the calls of the source. No stated cut-off is given here; in the data, active = GI50 up to about 1.1 µM and inactive = higher.

{"compound": "Cc1ccc(C)c2c1n1c(=O)n(C)c(=O)n21", "targetUnderTest": "LOX IMVI", "GI50": "> 100 µM (inactive)"}
{"compound": "Cc1cc(=O)oc2cc(OC(=O)Nc3ccccc3)ccc12", "targetUnderTest": "LOX IMVI", "GI50": "> 100 µM (inactive)"}
{"compound": "Cc1cc(=O)n2nc(CN3CCCCC3)sc2n1", "targetUnderTest": "LOX IMVI", "GI50": "> 100 µM (inactive)"}
{"compound": "COC(=O)[C@@H](Nc1ccccc1)[C@@]1(C(=O)OC)SC12c1ccccc1-c1ccccc12", "targetUnderTest": "LOX IMVI", "GI50": "32.7 µM (inactive)"}
{"compound": "COc1ccc(CC2Cc3ccccc3CCN2)cc1OC (stereo unspecified)", "targetUnderTest": "LOX IMVI", "GI50": "38.5 µM (inactive)"}
{"compound": "COc1ccccc1C(O)(c1ccccc1)C(O)(c1ccccc1)c1ccccc1OC (stereo unspecified)", "targetUnderTest": "LOX IMVI", "GI50": "> 100 µM (inactive)"}

---

Tested on: KM12
Assay: NCI tumour cell line growth inhibition, 48 h
Calls of active or inactive are those of the source. No stated cut-off is given here; in the data, active = GI50 up to about 1.1 µM and inactive = higher.
Labels: y (active), n (inactive)

{"compound": "CN(C)CCNC(=O)c1cccc2cc3c(Cl)cccc3nc12", "group": "n"}
{"compound": "COC1C(O)C(C)OC(O[C@@H]2C[C@H]3CC[C@@H]4[C@H](CC[C@]5(C)[C@@H](C6=CC(=O)OC6)CC[C@]45O)[C@@]3(C)[C@H](O)C2)C1O (some centres not stated)", "group": "y"}
{"compound": "Nc1ccc(C2=N/C(=C\\c3cccc(N)c3)C(=O)O2)cc1", "group": "n"}
{"compound": "COc1ccc(C(=O)Cc2c(C(=O)c3ccccc3)c3ccccc3n2C(=O)c2ccccc2)cc1", "group": "n"}
{"compound": "CC(=O)c1cc2ccccc2[n+]([O-])c1N", "group": "n"}
{"compound": "Cc1cc(C(O)CCCc2ccccc2)cc(C)c1O (configuration not stated)", "group": "n"}
{"compound": "CC1(C)CCCOc2cccc(c2)OCCCC(C)(C)C1=O", "group": "n"}
{"compound": "Nc1ccc(-c2nc3ccccc3s2)cc1C(F)(F)F", "group": "n"}
{"compound": "COc1ccc2nc(-c3ccc(OCc4ccccc4)cc3)ccc2c1", "group": "n"}
{"compound": "C(=N\\c1ccc(-c2cc(-c3ccccc3)nc3ccc4ccccc4c23)cc1)/c1ccccc1", "group": "n"}
{"compound": "CC(=O)C1C(=O)C(=O)N(c2ccc(Cl)c(Cl)c2)C1=O (configuration not stated)", "group": "n"}
{"compound": "C#CCN(N=O)C(=O)NC(CCCCNC(=O)OCc1ccccc1)C(=O)OCc1ccccc1 (configuration not stated)", "group": "n"}
{"compound": "O=C(CCC(=O)N/N=C/c1ccccc1O)N/N=C/c1ccccc1O", "group": "n"}
{"compound": "CCCC[S+]([O-])CCC(N)C(=O)O (configuration not stated)", "group": "n"}
{"compound": "CN(NC(=O)c1ccc(Cl)cc1)C1=NCCCCN1", "group": "n"}
{"compound": "Cn1c(-c2ccc[se]2)ccc1-c1ccc(C=O)[se]1", "group": "n"}
{"compound": "Cc1cc(C)nc(NS(=O)(=O)c2ccc(Nc3c4ccccc4nc4c(C(=O)Nc5ccc(S(=O)(=O)Nc6cc(C)on6)cc5)cccc34)cc2)n1", "group": "n"}
{"compound": "O=[N+]([O-])c1ccccc1S(=O)(=O)c1ccccc1[N+](=O)[O-]", "group": "n"}
{"compound": "CCCCON1C[C@@H](O)C(O)[C@@H](O)C1 (some centres not stated)", "group": "n"}
{"compound": "Brc1ccc(C2(N3CCCCC3)CCCCC2)s1", "group": "n"}
{"compound": "CC(=O)Nc1c(C)cc2c(nc3n2CCC3OC(C)=O)c1[N+](=O)[O-] (configuration not stated)", "group": "n"}
{"compound": "NC(=O)C(Nc1c(Cl)cccc1Cl)c1cc2cc(Br)ccc2nc1Cl (configuration not stated)", "group": "n"}
{"compound": "COC(=O)c1cc(C#N)[nH]c1-c1cc(Br)cs1", "group": "n"}
{"compound": "O=C1CSC(c2c[nH]c3ccccc23)N1c1ccc(Cl)cc1 (configuration not stated)", "group": "n"}
{"compound": "CCOC(=O)C(=O)Nc1cc(Cl)ccc1Cl", "group": "n"}
{"compound": "CCOC(=O)/C=C(/C(=O)OCC)n1cc(C)c(=O)n(Cc2cn(CCCCOC(C)=O)nn2)c1=O", "group": "n"}
{"compound": "CC1CCCN1CCCOC(=O)c1ccc(OC2C=CCCC2)cc1 (configuration not stated)", "group": "n"}
{"compound": "N#CC1=C(N)n2c(s/c(=C\\c3ccc(Cl)cc3)c2=O)=C(c2nc3ccccc3[nH]2)C1c1ccc(Cl)cc1 (configuration not stated)", "group": "n"}
{"compound": "CC(=O)Oc1ccccc1/C=C/C(=O)/C=C/c1ccccc1OC(C)=O", "group": "y"}
{"compound": "CC(C)(C)OC(=O)N1C(C2=COc3ccccc3O2)=COc2cccnc21", "group": "n"}
{"compound": "O=C(c1ccc(Cl)cc1)N(C(=S)OCc1ccccn1)c1ccccc1", "group": "n"}
{"compound": "Clc1ccc(/C=N/C23CC4CC(CC(C4)C2)C3)cc1Cl", "group": "n"}
{"compound": "CN(C)c1ccc(/C=C/C(=O)C(C)(C)C)cc1Br", "group": "n"}
{"compound": "NC1=NN(c2ccccc2)C(=O)C1C(=O)C(=O)Nc1ccc(Cl)cc1 (configuration not stated)", "group": "n"}
{"compound": "CC1C(c2ccc(N(C)C)cc2)c2cc3c(cc2OC1N1CCCC1)OCO3 (configuration not stated)", "group": "n"}
{"compound": "COc1cc([C@@H]2c3cc4c(cc3[C@@H](OC(=O)c3cccc(N)c3)C3COC(=O)[C@@H]32)OCO4)cc(OC)c1O (some centres not stated)", "group": "n"}
{"compound": "C1COC(NC(C2CC2)C2CC2)=N1", "group": "n"}
{"compound": "CC(C)(C)c1ccc(OCCOc2ccc(C(C)(C)C)cc2NC=O)c(NC=O)c1", "group": "n"}
{"compound": "O=C(/C=C/c1cccs1)c1ccc(C(=O)/C=C/c2cccs2)cc1", "group": "n"}
{"compound": "CC1=C(C(=O)Nc2cccc(Cl)c2)C(c2ccccc2F)C(C(=O)Nc2cccc(Cl)c2)=C(C)N1", "group": "n"}
{"compound": "COC(=O)c1nc(-c2ccc3c(n2)C(=O)C(=N)C(OC)=C3O)c(N)c(-c2ccc(OC)c(OC)c2O)c1C", "group": "n"}
{"compound": "Cc1ccc(C)c2c1n1c(=O)n(C)c(=O)n21", "group": "n"}

These entries and their values trace back to ChEMBL document CHEMBL1201862.
